Target: T1, 4H2627-bA
T1 chain: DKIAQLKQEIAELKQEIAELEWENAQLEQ
Experiment: two-hybrid library CCNG1;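 note: natural log of median RNA to DNA barcode read ratio; higher means stronger binding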
Examples of binders with documented interaction score follow.

[
  {
    "binder": "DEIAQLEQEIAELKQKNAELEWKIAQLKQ [4H118-bA]",
    "interaction score": 0.852
  },
  {
    "binder": "DKIAQLKQEIAELEQENAELKWEIAQLKQ [4H2586-bA]",
    "interaction score": 0.292
  },
  {
    "binder": "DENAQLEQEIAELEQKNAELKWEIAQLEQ [4H1081-bA]",
    "interaction score": -0.693
  },
  {
    "binder": "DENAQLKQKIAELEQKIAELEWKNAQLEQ [4H1831-bA]",
    "interaction score": 1.11
  },
  {
    "binder": "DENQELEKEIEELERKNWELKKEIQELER [4H1081-bH]",
    "interaction score": 0.747
  },
  {
    "binder": "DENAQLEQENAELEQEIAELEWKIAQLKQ [4H1158-bA]",
    "interaction score": 1.15
  },
  {
    "binder": "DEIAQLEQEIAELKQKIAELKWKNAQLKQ [4H112-bA]",
    "interaction score": 1.89
  },
  {
    "binder": "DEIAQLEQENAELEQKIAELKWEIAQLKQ [4H170-bA]",
    "interaction score": 1.23
  },
  {
    "binder": "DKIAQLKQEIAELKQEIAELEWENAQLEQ [4H2627-bA]",
    "interaction score": 0.441
  }
]
